Test: xn = mol fraction of the nth substance listed
Conditions: 308.15 K; 101 kPa; x1 = 1.08e-06; x2 = 0
Measured electrical conductivity, listed per entry for reference.
property: electrical conductivity (S/m)

INSERT INTO measurements (molecule, test_value) VALUES
  ('CCCCCCCCCCCCCCCC[n+]1ccccc1.O=C([O-])C(O)c1ccccc1 + C[C@H](N)C(=O)O + O', 0.00083),
  ('CCCCCCCCCCCCCCCC[n+]1ccccc1.O=C([O-])C(O)c1ccccc1 + NCC(=O)NCC(=O)O + O', 0.00083),
  ('CCCCCCCCCCCCCCCC[n+]1ccccc1.O=C([O-])C(O)c1ccccc1 + CC(C)C[C@H](N)C(=O)O + O', 0.00083),
  ('CCCCCCCCCCCCCCCC[n+]1ccccc1.O=C([O-])C(O)c1ccccc1 + NCC(=O)O + O', 0.00083),
  ('CCCCCCCCCCCCCCCC[n+]1ccccc1.O=C([O-])C(O)c1ccccc1 + CC(C)[C@H](N)C(=O)O + O', 0.00083);

The origin of these recorded values is the CheMixHub ionic liquid set.
